Reference source: patent US6015925A

Data export: MIC values recorded with T. mentagrophytes (TIMM1189).
Property name: MIC (µg/mL)

>>> print(df.to_string())
                                   molecule                   system_name  property_name  measurement_unit  numeric_readout
0  CN(Cc1ccc(C(C)(C)C)cc1)Cc1ccccc1-c1ccccc1 [Compound 1]  T. mentagrophytes (TIMM1189)            MIC             µg/mL             12.5
1  CN(Cc1ccc(C(C)(C)C)cc1)Cc1cccc(-c2ccccc2)c1 [Compound 2]  T. mentagrophytes (TIMM1189)            MIC             µg/mL               25
2  CN(C/C=C\C#CC(C)(C)C)Cc1cccc(-c2ccccc2)c1 [Compound 8]  T. mentagrophytes (TIMM1189)            MIC             µg/mL             12.5
3  CN(C/C=C/C#CC(C)(C)C)Cc1cccc(-c2ccccc2)c1 [Compound 7]  T. mentagrophytes (TIMM1189)            MIC             µg/mL             12.5
4  CN(CC=CC#CC(C)(C)C)C(c1ccccc1)c1ccccc1 [Compound 11]  T. mentagrophytes (TIMM1189)            MIC             µg/mL              100
5  CN(Cc1ccc(-c2ccccc2)cc1)Cc1ccc(C(C)(C)C)cc1 [Compound 3]  T. mentagrophytes (TIMM1189)            MIC             µg/mL             12.5
6  CN(C/C=C/C#CC(C)(C)C)Cc1ccc(-c2ccccc2)cc1 [Compound 9]  T. mentagrophytes (TIMM1189)            MIC             µg/mL             12.5
7  CN(Cc1ccc(C(C)(C)C)cc1)C(c1ccccc1)c1ccccc1 [Compound 4]  T. mentagrophytes (TIMM1189)            MIC             µg/mL              100
8  CN(C/C=C\C#CC(C)(C)C)Cc1ccccc1-c1ccccc1 [Compound 6]  T. mentagrophytes (TIMM1189)            MIC             µg/mL              100
9  CN(C/C=C/C#CC(C)(C)C)Cc1ccccc1-c1ccccc1 [Compound 5]  T. mentagrophytes (TIMM1189)            MIC             µg/mL             12.5
